Where do these numbers come from? They come from patent US6858210B1.

- Tested on: affinity purified β2GPI-dependent antiphospholipid antibody
- METHOD: Competitive inhibition ELISA: recombinant β2GPI proteins compete for antibody binding to coated full length recombinant β2GPI
- Parameters: species or system human
- EXPERIMENTAL_CONDITIONS: Ab 6203
MEASURED_ATTRIBUTE: Max (maximum inhibition observed at concentrations tested)

Reported Max (maximum inhibition observed at concentrations tested) for 1234-: recombinant β2GPI deletion mutant with domains 1, 2, 3, 4 (protein) GRTCPKPDDLPFSTVVPLKTFYEPGEEITYSCKPGYVSRGGMRKFICPLTGLWPINTLKCTPRVCPFAGILENGAVRYTTFEYPNTISFSCNTGFYLNGADSAKCTEEGKWSPELPVCAPIICPPPSIPTFATLRVYKPSAGNNSLYRDTAVFECLPQHAMFGNDTITCTTHGNWTKLPECREVKCPFPSRPDNGFVNYPAKPTLYYKDKATFGCHDGYSLDGPEEIECTKLGNWSAMPSCGHHHHHH was 30%
